B1: EHEE_rd3_0053 (parent)
chain: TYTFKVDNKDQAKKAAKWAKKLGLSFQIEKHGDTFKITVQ

Variants of: B1
Experiment: folding stability dG (cDNA display proteolysis); higher = more stable
Details: PBS, room temperature
Can you tell me folding stability dG for the items I'm about to list?
Return type: number; implicit unit kcal/mol.

Query: Identify folding stability dG associated with the variant `G23N`
Reply: 1.97

Query: Identify folding stability dG associated with the variant `D7R`
Reply: 2.68

Query: Identify folding stability dG associated with the variant `I28S`
Reply: 1.26

Query: Identify folding stability dG associated with the variant `A19V`
Reply: 1.47

Query: Identify folding stability dG associated with the variant `T1Y`
Reply: 2.64

Query: Identify folding stability dG associated with the variant `T38K`
Reply: 1.65

Query: Identify folding stability dG associated with the variant `A15Y`
Reply: 3.04

Query: Identify folding stability dG associated with the variant `E29Q`
Reply: 2.19

Query: Identify folding stability dG associated with the variant `L22M`
Reply: 2.54

Query: Identify folding stability dG associated with the variant `A12R`
Reply: 1.29

Query: Identify folding stability dG associated with the variant `A19W`
Reply: 1.23

Query: Identify folding stability dG associated with the variant `A12L`
Reply: 2.42

Query: Identify folding stability dG associated with the variant `G23Q`
Reply: 1.52

Query: Identify folding stability dG associated with the variant `E29H`
Reply: 2.01

Query: Identify folding stability dG associated with the variant `T38G`
Reply: 0.192

Query: Identify folding stability dG associated with the variant `K20R`
Reply: 2.45

Query: Identify folding stability dG associated with the variant `L22Y`
Reply: 2.3

Query: Identify folding stability dG associated with the variant `K14D`
Reply: 1.56

Query: Identify folding stability dG associated with the variant `L24K`
Reply: 1.32

Query: Identify folding stability dG associated with the variant `H31S`
Reply: 2.45

Query: Identify folding stability dG associated with the variant `K30Y`
Reply: 1.92

Query: Identify folding stability dG associated with the variant `V6A`
Reply: 1.62

Query: Identify folding stability dG associated with the variant `D33M`
Reply: 2.1

Query: Identify folding stability dG associated with the variant `K9E`
Reply: 2.65

Query: Identify folding stability dG associated with the variant `K21Y`
Reply: 2.02

Query: Identify folding stability dG associated with the variant `A15C`
Reply: 3.07

Query: Identify folding stability dG associated with the variant `E29F`
Reply: 1.95

Query: Identify folding stability dG associated with the variant `L24N`
Reply: 0.22

Query: Identify folding stability dG associated with the variant `A16Y`
Reply: 2.45

Query: Identify folding stability dG associated with the variant `K13E`
Reply: 2.32

Query: Identify folding stability dG associated with the variant `D7F`
Reply: 2.83

Query: Identify folding stability dG associated with the variant `I28H`
Reply: 0.125

Query: Identify folding stability dG associated with the variant `K21P`
Reply: -0.644

Query: Identify folding stability dG associated with the variant `I28G`
Reply: -0.457

Query: Identify folding stability dG associated with the variant `K21G`
Reply: 2.12

Query: Identify folding stability dG associated with the variant `V6P`
Reply: 0.243

Query: Identify folding stability dG associated with the variant `Q27N`
Reply: 2.29

Query: Identify folding stability dG associated with the variant `Q40W`
Reply: 3.28

Query: Identify folding stability dG associated with the variant `K9D`
Reply: 1.91

Query: Identify folding stability dG associated with the variant `D33K`
Reply: 2.35

Query: Identify folding stability dG associated with the variant `V6E`
Reply: 0.257

Query: Identify folding stability dG associated with the variant `T3D`
Reply: 1.34

Query: Identify folding stability dG associated with the variant `F35I`
Reply: 1.85

Query: Identify folding stability dG associated with the variant `T38I`
Reply: 2.34

Query: Identify folding stability dG associated with the variant `F4M`
Reply: 1.23

Query: Identify folding stability dG associated with the variant `K9G`
Reply: 1.9
